test: Confirmatory qHTS assay for inhibitors of Activation Induced Cytidine Deaminase (AID): UDG signals; conditions: UDG coupled enzyme activity counter-screen; series mostly up to 115 µM
In all, about 1,200 compounds went through this assay and fewer than 10 were called active. Not all results are given here.
Measured Quantity: outcome

Answered cases to consult:
Molecule	Result
CCOC(=O)c1cccc(NC(=O)c2oc3c(c2C)-c2nn(CC)cc2CC3)c1	inactive
CC(C)c1ccc(NC(=O)CSC2=Nc3ccccc3C3=NC(CCC(=O)NCc4ccco4)C(=O)N23)cc1 (centres undefined)	inactive
Cc1ccc(C)c(N2CCN(C(=O)c3cnn(C(C)(C)C)c3C3CCN(C(=O)OC(C)(C)C)CC3)CC2)c1	inactive
COc1ccc(CCN2CCC(CNC(=O)c3cnn(-c4cccc(Cl)c4)c3C3CCN(C(=O)OC(C)(C)C)CC3)CC2)cc1	inactive
Cc1cccc(Cn2nnc3c(=O)[nH]c(C4CCCN(C(=O)c5ccc(C(C)(C)C)cc5)C4)nc32)c1 (centres undefined)	inactive
COc1ccc(CSc2nc3ccncc3n2Cc2nc(-c3ccc(OC)c(OC)c3)oc2C)cc1	inactive
Cc1ccccc1OCC(=O)Nc1cccc(C(=O)OCc2cc(=O)n3c(C)csc3n2)c1	inactive
COc1ccccc1OCCn1c(C(C)Oc2ccccc2)nc2ccccc21 (centres undefined)	inactive
CCOC(=O)c1ccc(-c2ccc(/C=C(\C#N)c3nc4ccc(C)cc4[nH]3)o2)cc1	inactive
CCn1cc2nc(SCc3cccc(C(F)(F)F)c3)n(Cc3ccc(C)cc3)c(=O)c2n1	inactive

The value of outcome measured for the molecule Cc1nc2c(C(=O)NCCc3ccc(Cl)cc3)cnn2c(C)c1Cc1ccc(F)cc1 turned out to be inactive

The recorded outcome for entry Cc1ccc(-n2ncc(C(=O)NCCc3ccccc3)c2C2CCN(C(=O)OC(C)(C)C)CC2)c(C)c1 equals inactive

COc1ccccc1NC(=O)c1cc2cc3ccc(OC)c(Cl)c3nc2s1 has a reported outcome of inactive

GET /value?item= CCc1ccccc1NC(=O)[C@H](Cc1ccccc1)N1Cc2ccccc2C1=O &field=outcome returns inactive

Measured outcome, CCC(C(=O)N1CCN(c2ccccc2)CC1)n1nc(C)n2c(cc3sccc32)c1=O (centres undefined) : inactive

outcome in this record for CCCCN(CC)CCNC(=O)C1CCN(c2nnc(C)c3c(C)n(-c4ccc(C)cc4)nc23)CC1 : inactive
